For each of the molecules below, state its normalised response.
test system: BT-549; experiment: normalised response (% of control), CellTiter-Glo; higher = more viable cells (100 = DMSO, 0 = benzethonium chloride kill control); conditions: incubation time: 72 h
Enter the number, and then the unit.

Some molecules with recorded normalised response:
Value of measured normalised response for the entry O=C(CCBr)N1CCN(C(=O)CCBr)CC1 [Pipobroman] (10000 nM) : 101%

Value of measured normalised response for the entry O=C(Nc1c[nH]nc1-c1nc2ccc(CN3CCOCC3)cc2[nH]1)NC1CC1 [AT9283] (1000 nM) : 27.8%

Value of measured normalised response for the entry Cc1cccc(-c2nn3c(c2-c2ccnc4ccc(C(N)=O)cc24)CCC3)n1 [Galunisertib] (1000 nM) : 95.7%

Value of measured normalised response for the entry CC(=O)OC[C@H]1O[C@@H]([S-])[C@H](OC(C)=O)[C@@H](OC(C)=O)[C@@H]1OC(C)=O.CCP(CC)CC.[Au+] [Auranofin] (2500 nM) : 0.2%

I have 3 molecules here; please give me normalised response for each one.
1. CS(=O)(=O)N1CCN(Cc2cc3nc(-c4cccc5[nH]ncc45)nc(N4CCOCC4)c3s2)CC1 [Pictilisib] (10000 nM)
2. COc1cc(CCc2cc(NC(=O)c3ccc(N4CC(C)NC(C)C4)cc3)n[nH]2)cc(OC)c1 (stereo not drawn) [AZD4547] (1000 nM)
3. CCC/C=C/C=C/C(=O)O[C@H]1/C(=C/C(=O)OC)C[C@H]2C[C@H]([C@@H](C)O)OC(=O)C[C@H](O)C[C@@H]3C[C@H](OC(C)=O)C(C)(C)[C@](O)(C[C@@H]4C/C(=C/C(=O)OC)C[C@H](/C=C/C(C)(C)[C@]1(O)O2)O4)O3 [Bryostatin 1] (100 nM)

**A:**
["25.6%", "88.7%", "87.9%"]

Value of measured normalised response for the entry COc1ccc(-c2cc3c(C)nc(N)nc3n([C@H]3CC[C@H](OCCO)CC3)c2=O)cn1 (10000 nM) : 8.65%
